Biological target: pooled human IgG (human IgG1, 2, 3 and 4)
Reported metric: Enzyme Activity Endpoint Assay (purified): Fab′2 (ng/µL)
Write the number in ng/µL without appending the unit.

# input protein: PRT-623 (protein) MQITTVWTKGVTPLTPEQFRYNNEDVIHAPYLAHQGWYDITKAFDGKDNLLCGAATAGNMLHWWFDQNKTEIEAYLSKHPEKQKIIFNNQELFDLKAAIDTKDSQTNSQLFNYFRDKAFPNLSARQLGVMPDLVLDMFINGYYLNVFKTQSTDVNRPYQDKDKRGGIFDAVFTRGDQTTLLTARHDLKNGTLNEISQIIKQELQSGRALALSHTYANVSISHVINLWGADFNAEGNLIAIYVTDSDANASIGMKKYFVGINAHGHVAISAKKIEGENIGAQVLGLFTLSSGKDIWQKLSLEHHHHHH ; wanted: its Enzyme Activity Endpoint Assay (purified): Fab′2 433
